# ASSAY PROCEDURE: Human HepG2 cell viability assay in 384 well format
# Type: toxicity, cell-based
# Set-up: dose 125 nL, time 70.5 hour; concentration not given beside the values
# TEST PARAMETERS: HepG2 cells, read-out: Inhibition
Let's look at some molecules and their measured cytotoxicity at 70.5 h.
# output: bare number, implied unit %

COCCN1C[C@@H](C)[C@@]2(COCCN(C(=O)c3ccncc3)C2)C1; -3.32

Give the reported cytotoxicity at 70.5 h for this molecule. O=c1ccc2c(n1Cc1ccncc1)CCN(Cc1ccoc1)CC2
1.47

Check the records and state cytotoxicity at 70.5 h for O=C(O)c1cc(-c2ccncc2)cc(S(=O)(=O)N2CCSCC2)c1
-6.71

Entry Cc1ccc(-n2nnc(CC(=O)N3CCN(C(C)C)CC3)c2C)cc1 needs its cytotoxicity at 70.5 h filled in; supply it.
-10.5
